Data origin: PubChem BioAssay AID2685

Experiment: qHTS Assay for Lipid Storage Modulators in Drosophila S3 Cells;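 also: cells counted by Cell Tracker Red CMTPX staining in the red channel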
Conditions: BODIPY lipid droplet fluorescence, 18-24 h, cells fed with added oleic acid; measured here: cell count max response
From the text: NIH Molecular Libraries Probe Production Centers Network [MLPCN] NIH Chemical Genomics Center [NCGC] […] Triacsin C (Sigma-Aldrich T-4540), an inhibitor of long-chain fatty acyl CoA synthetase that blocks synthesis of triglycerides, was used as a positive control for lipid under-storage. […] Fluorescence was detected by excitation of the fluorophores with a 488-nm laser on an Acumen Explorer (TTP Lab Tech). […] Cells were detected using channel 3 (575-640 nm) with 5-um width and 100-um depth filters. […]
The campaign covered roughly 320,000 compounds. About 2,100 (0.66%) were called active. Roughly 53% stayed inconclusive and do not appear here. What follows is part of a selection rich in actives, with near analogues and random picks from the rest.
Listed here are molecules together with their documented cell number change.
Provide only the numeric value, understood in %.

Provide only the value of recorded cell number change for "O=c1nc(-c2ccccc2)cc(C(F)(F)F)[nH]1"
-9.42
